- Tested on: Sweetpotato Whitefly-Crawler (WF) (Bemisia tabaci) (BEMITA)
- protocolDetails: Insecticidal test for Sweetpotato Whitefly-Crawler (WF) in foliar spray assay on cotton plants
- Type: in vivo
- setupConditions: 216 h, 200 ppm foliar spray on cotton plants, graded after 9 days, Abbott corrected % control, read-out: WF 200 ppm, % Control (or Mortality) rating
Recorded mortality at 200 ppm for the following compounds

>>> print(df.to_string())
                                   compound        measuredmetric      result
0  CCN(C(=O)CC/C(=N/OCC1CC1(F)F)c1cccs1)c1cn(-c2cccnc2)nc1Cl (centres unmarked) [FA39]  mortality at 200 ppm    0 to 80%
1  CCN(C(=O)C(C)N(C)C(=O)CC(F)(F)F)c1cn(-c2cccnc2)nc1Cl (centres unmarked) [Compound F66]  mortality at 200 ppm  80 to 100%
2  CON=C(C)CCC(=O)N(C)c1cn(-c2cccnc2)nc1Cl (mixture of isomers) [Compound F60]  mortality at 200 ppm  80 to 100%
3  CCN(C(=O)CC/C(C)=N/Oc1cccc(C(F)(F)F)n1)c1cn(-c2cccnc2)nc1Cl [Compound F59]  mortality at 200 ppm  80 to 100%

Turning to the following compound.
Q) # get_value(readout='mortality at 200 ppm', item= CCN(C(=O)CCNC(=O)C1CCN(C(C)=O)CC1)c1cn(-c2cccnc2)nc1Cl [Compound F112] )
A) 80 to 100%

---

- System: Green Peach Aphid (GPA) (Myzus persicae) (MYZUPE)
- protocolDetails: Bioassay for Green Peach Aphid (GPA), foliar spray on cabbage seedlings
- Type: in vivo
- setupConditions: 72 h, 200 ppm foliar spray on cabbage seedlings, graded after three days, Abbott corrected % control, read-out: GPA 200 ppm, % Control (or Mortality) rating
measuredMetric: mortality at 200 ppm

Worked examples, 3 compounds total:
>>> print(df.to_string())
                                   compound                               studysystem        measuredmetric      result
0  CCN(C(=O)CC/C(=N/OCCCCC(F)(F)F)c1cccs1)c1cn(-c2cccnc2)nc1Cl  Green Peach Aphid (GPA) (Myzus persicae) (MYZUPE)  mortality at 200 ppm    0 to 80%
1  CN(C(=O)Cn1ccccc1=O)c1cn(-c2cccnc2)nc1Cl  Green Peach Aphid (GPA) (Myzus persicae) (MYZUPE)  mortality at 200 ppm  80 to 100%
2  CCN(C(=O)C1CCCN(C(=O)CC(F)(F)F)C1)c1cn(-c2cccnc2)nc1Cl (stereo not shown)  Green Peach Aphid (GPA) (Myzus persicae) (MYZUPE)  mortality at 200 ppm  80 to 100%

Turning to the following compound.
Q) Recall the recorded mortality at 200 ppm for CCN(C(=O)CNC(=O)C1(C)CC1(F)F)c1cn(-c2cccnc2)nc1Cl (stereo not shown) with Green Peach Aphid (GPA) (Myzus persicae) (MYZUPE) and state it.
A) 80 to 100%

---

- Tested on: Green Peach Aphid (GPA) (Myzus persicae) (MYZUPE)
- protocolDetails: Bioassay for Green Peach Aphid (GPA), foliar spray on cabbage seedlings
- Type: in vivo
- setupConditions: 72 h, 200 ppm foliar spray on cabbage seedlings, graded after three days, Abbott corrected % control, read-out: GPA 200 ppm, % Control (or Mortality) rating
measuredMetric: mortality at 200 ppm

Worked examples, 3 molecules total:
>>> df
                                   molecule      result
0  CCN(C(=O)C1CN(C(=O)c2cccnc2)C1)c1cn(-c2cccnc2)nc1Cl    0 to 80%
1  CCN(C(=O)C(C)N(C)C(C)=O)c1cn(-c2cccnc2)nc1Cl (stereo not shown)  80 to 100%
2  CCN(C(=O)CC/C(=N/OCc1ccc(C(F)(F)F)nc1)c1cccs1)c1cn(-c2cccnc2)nc1Cl    0 to 80%

Q) # get_value(readout='mortality at 200 ppm', item= CC(=O)N1CCC(C(=O)N(C)c2cn(-c3cccnc3)nc2Cl)CC1 )
A) 80 to 100%

---

- System: Green Peach Aphid (GPA) (Myzus persicae) (MYZUPE)
- protocolDetails: Bioassay for Green Peach Aphid (GPA), foliar spray on cabbage seedlings
- Assay type: in vivo
- setupConditions: foliar, 72 h, read-out: GPA 200 ppm, % Control (or Mortality) rating
measuredMetric: mortality at 200 ppm

                                   compound                               studysystem    result
0  CC(C)(C)[Si](C)(C)N1CC(CC(=O)O)C1=O (stereo not shown)  Green Peach Aphid (GPA) (Myzus persicae) (MYZUPE)  0 to 80%

Q) # get_value(readout='mortality at 200 ppm', item= CN(CC(=O)N(CC1CC1)c1cn(-c2cccnc2)nc1Cl)C(=O)OC(C)(C)C )
A) 0 to 80%

Q) Likewise for CC(C)(C)[Si](C)(C)N1CC(CCC(=O)O)C1=O (stereo not shown) ?
A) 0 to 80%

Q) Likewise for CCN(C(=O)CCN(CC(F)F)C(=O)n1ccnc1)c1cn(-c2cccnc2)nc1Cl ?
A) 0 to 80%

Q) Likewise for C#CCN(C(=O)CN(C)C(=O)OC(C)(C)C)c1cn(-c2cccnc2)nc1Cl ?
A) 0 to 80%

Q) Likewise for CN(CC(=O)N(C)c1cn(-c2cccnc2)nc1Cl)C(=O)OC(C)(C)C ?
A) 0 to 80%

Q) Likewise for CCN(C(=O)CCN(C)C(=O)OC(C)(C)C)c1cn(-c2cccnc2)nc1Cl ?
A) 80 to 100%

---

- System: Green Peach Aphid (GPA) (Myzus persicae) (MYZUPE)
- protocolDetails: Bioassay for Green Peach Aphid (GPA), foliar spray on cabbage seedlings
- Type: in vivo
- setupConditions: 72 h, 200 ppm foliar spray on cabbage seedlings, graded after three days, Abbott corrected % control, read-out: GPA 200 ppm, % Control (or Mortality) rating
measuredMetric: mortality at 200 ppm

Worked examples, 5 molecules total:
                                   molecule      result
0  Cc1nn(-c2cccnc2)cc1N(C)C(=O)CCC(=O)N(C)C  80 to 100%
1  CCN(C(=O)CCN1CCOC1=O)c1cn(-c2cccnc2)nc1Cl  80 to 100%
2  CCN(C(=O)C1CCN(C(=O)CCC(F)(F)F)CC1)c1cn(-c2cccnc2)nc1Cl  80 to 100%
3  CCN(C(=O)CCNC(=O)/C=C/C(F)(F)F)c1cn(-c2cccnc2)nc1Cl  80 to 100%
4  CCN(C(=O)C1CCCN(C(=O)C(F)(F)F)C1)c1cn(-c2cccnc2)nc1Cl (stereo not drawn)  80 to 100%

Q) Recall the recorded mortality at 200 ppm for CCN(C(=O)C(C)OC(=O)N(C)OC)c1cn(-c2cccnc2)nc1Cl (stereo not drawn) with Green Peach Aphid (GPA) (Myzus persicae) (MYZUPE) and state it.
A) 80 to 100%

Q) Likewise for CCN(C(=O)C1CCN(C(=O)CCC#N)CC1)c1cn(-c2cccnc2)nc1Cl ?
A) 80 to 100%

Q) Likewise for CCN(C(=O)C1CCN(C(=O)c2cccnc2)C1)c1cn(-c2cccnc2)nc1Cl (stereo not drawn) ?
A) 0 to 80%

Q) Likewise for CCN(C(=O)CCC1CNC1=O)c1cn(-c2cccnc2)nc1Cl (stereo not drawn) ?
A) 0 to 80%

---

- Test system: Green Peach Aphid (GPA) (Myzus persicae) (MYZUPE)
- protocolDetails: Bioassay for Green Peach Aphid (GPA), foliar spray on cabbage seedlings
- Format: in vivo
- setupConditions: 72 h, 200 ppm foliar spray on cabbage seedlings, graded after three days, Abbott corrected % control, read-out: GPA 200 ppm, % Control (or Mortality) rating
measuredMetric: mortality at 200 ppm

Worked examples, 5 molecules total:
>>> print(df.to_string())
                                   molecule                               studysystem      result
0  CCN(C(=O)CC/C(=N/OCC1CC1(F)F)c1cccs1)c1cn(-c2cccnc2)nc1Cl (centres unmarked)  Green Peach Aphid (GPA) (Myzus persicae) (MYZUPE)    0 to 80%
1  CCN(C(=O)C1CCN(C(=O)OC(C)(C)C)CC1)c1cn(-c2cccnc2)nc1Cl  Green Peach Aphid (GPA) (Myzus persicae) (MYZUPE)  80 to 100%
2  CCN(C(=O)CCC(=O)N1CCCCC1)c1cn(-c2cccnc2)nc1Cl  Green Peach Aphid (GPA) (Myzus persicae) (MYZUPE)    0 to 80%
3  CCN(C(=O)CCC(=O)NCC1CCCCC1)c1cn(-c2cccnc2)nc1Cl  Green Peach Aphid (GPA) (Myzus persicae) (MYZUPE)    0 to 80%
4  CCN(C(=O)C(C)C/C=N\OCCC1CC1(F)F)c1cn(-c2cccnc2)nc1Cl (centres unmarked)  Green Peach Aphid (GPA) (Myzus persicae) (MYZUPE)  80 to 100%

Q) Recall the recorded mortality at 200 ppm for CCN(C(=O)CCn1ccc(/C(C)=N/OC(C)C)n1)c1cn(-c2cccnc2)nc1Cl with Green Peach Aphid (GPA) (Myzus persicae) (MYZUPE) and state it.
A) 0 to 80%

Q) Likewise for CCN(C(=O)C(C)N(C)C(=O)CC(F)(F)F)c1cn(-c2cccnc2)nc1Cl (centres unmarked) ?
A) 80 to 100%

Q) Likewise for CCN(C(=O)CCC1CN(CC2CC2(F)F)C1=O)c1cn(-c2cccnc2)nc1Cl (centres unmarked) ?
A) 80 to 100%
